binding intensity listing for selected binders.
- Subject of test: T1, human ROR2 expressed on the cell surface (human, UniProt Q01974 34-943)
- T1 construct: Endogenous ROR2 of human tumour cell lines; also called cell surface ROR2; ROR2 on tumour cell lines
- Assay method text: flow cytometry, MCF7 cells (breast CA)
- Design: unit not given here
Keep the answer to the number alone.

ROR2-241 full length human IgG1 antibody (antibody, V domains shown) VH: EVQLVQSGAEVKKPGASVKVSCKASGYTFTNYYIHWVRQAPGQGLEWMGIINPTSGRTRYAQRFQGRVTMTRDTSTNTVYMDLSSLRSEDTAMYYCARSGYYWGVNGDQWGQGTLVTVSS VL: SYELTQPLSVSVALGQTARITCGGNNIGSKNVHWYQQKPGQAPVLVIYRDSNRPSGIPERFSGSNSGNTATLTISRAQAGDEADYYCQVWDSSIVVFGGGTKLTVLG	21

Consider the binder shown here: ROR2-240 full length human IgG1 antibody (antibody, V domains shown, also called clone #240 IgG1) VH: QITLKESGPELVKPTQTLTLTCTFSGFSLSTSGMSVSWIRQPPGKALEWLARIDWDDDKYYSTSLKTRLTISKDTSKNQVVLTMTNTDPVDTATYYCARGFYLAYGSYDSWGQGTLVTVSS VL: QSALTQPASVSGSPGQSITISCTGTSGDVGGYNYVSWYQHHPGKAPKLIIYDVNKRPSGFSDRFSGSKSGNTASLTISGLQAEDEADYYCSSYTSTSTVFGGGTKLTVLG What is its recorded binding intensity?
3

Consider the binder shown here: ROR2-23 full length human IgG1 antibody (antibody, V domains shown, The light chain of clone 023 is labelled kappa; also called clone #23; clone #023 IgG1) VH: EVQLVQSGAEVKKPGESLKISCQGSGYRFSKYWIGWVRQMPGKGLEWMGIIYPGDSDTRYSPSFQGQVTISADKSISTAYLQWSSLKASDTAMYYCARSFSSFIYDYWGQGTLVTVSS VL: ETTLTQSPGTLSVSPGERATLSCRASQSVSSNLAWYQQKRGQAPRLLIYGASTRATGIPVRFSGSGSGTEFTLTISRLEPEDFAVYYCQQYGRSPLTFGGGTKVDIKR What is its recorded binding intensity?
52

Consider the binder shown here: ROR2-27 full length human IgG1 antibody (antibody, V domains shown, also called clone #27; clone #027 IgG1) VH: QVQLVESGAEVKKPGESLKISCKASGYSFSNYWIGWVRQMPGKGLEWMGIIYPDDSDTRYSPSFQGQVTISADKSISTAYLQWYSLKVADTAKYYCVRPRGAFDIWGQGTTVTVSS VL: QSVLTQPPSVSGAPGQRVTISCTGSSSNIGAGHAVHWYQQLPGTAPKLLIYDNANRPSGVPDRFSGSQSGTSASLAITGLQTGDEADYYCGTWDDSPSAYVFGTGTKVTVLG What is its recorded binding intensity?
27
